- Test system: HIV-1LAI virus
- Assay Name: Peptide blockade of HIV-1 induced cell-cell fusion (syncytia formation; Molt4 cells co-cultivated with chronically infected CEM cells)
- Format: cell-based
- Run Parameters: Table 3; peptide concentration 1.25 ug/ml on IIIB; ctrl cells only = 85
- Source text: The initial screen for antiviral activity of the peptides shown in FIG. 1 was for blockade of syncytium formation induced by overnight co-cultivation of uninfected Molt4 cells with chronically infected (HIV-1IIIB) CEM cells. […]
# No. Syncytia/well values compiled below
Answer with a bare number; do not write a unit.

These recorded examples may help you get a feel for the data.
IEAQQHLLQLTVWGIKQLQARILAVERYLKDQ [DP-123]
80
CGNNLLRAIEAQQHLLQLTVWGIKQLQARILAVERYLKDQ (CGGNNLLRAIEAQQHLLQLTVWGIKQLQARILAVERYLKDQ) [DP-125]
0

Problem: So what No. Syncytia/well did CGGNNLLRAIEAQQHLLQLTVWGIKQLQARILAVERYLKDQGGC [DP-130] get with HIV-1LAI virus?
Result: 47

Problem: Repeat with NNLLRAIEAQQHLLQLTVWGIKQLQARILAVERYLKDQGGC [DP-129]
Result: 0

Problem: Do the same for QQLLDVVKRQQEMLRLTVWGTKNLQARVTAIEKYLKDQ [DP-118] please
Result: 74

Problem: What about NNLLRAIEAQQHLLQLTVWGIKQLQARILAV [DP-127] ?
Result: 87

====

- Tested on: HIV-1LAI virus
- Assay Name: Peptide blockade of HIV-1 induced cell-cell fusion (syncytia formation; Molt4 cells co-cultivated with chronically infected CEM cells)
- Type: cell-based
- Run Parameters: Table 3; peptide concentration 2.5 ug/ml on IIIB; ctrl cells only = 85
Quantity Kind: No. Syncytia/well
# answer = number (no unit)

Below, 5 sequences whose answers are already recorded.
CGNNLLRAIEAQQHLLQLTVWGIKQLQARILAVERYLKDQ (CGGNNLLRAIEAQQHLLQLTVWGIKQLQARILAVERYLKDQ) [DP-125]
0
QQLLDVVKRQQEMLRLTVWGTKNLQARVTAIEKYLKDQ [DP-118]
78
NNLLRAIEAQQHLLQLTVWGIKQLQARILAV [DP-127]
53
NNLLRAIEAQQHLLQLTVWGIKQLQARILAVERYLKDQGGC [DP-129]
0
IEAQQHLLQLTVWGIKQLQARILAVERYLKDQ [DP-123]
69

Could you now look at the following sequence, please?
Problem: # query: No. Syncytia/well of entry CGGNNLLRAIEAQQHLLQLTVWGIKQLQARILAVERYLKDQGGC [DP-130]
Result: 0
